- Test system: Wolbachia pipientis
- EXPERIMENTAL_PROTOCOL: Anti-Wolbachia Cell-Based Screen
- Type: functional
- Parameters: scale not given: in the data most compounds retested in dose-response had high values
- PROTOCOL_CONDITIONS: 5 µM
The campaign covered roughly 48,000 compounds. About 13,000 (27%) showed an effect of 50% or more. Some of the results follow.
PROPERTY_MEASURED: Percent Effect
Give me the value, and tack the unit on after it.

COMPOUND	Percent Effect
O=C(CCn1cccn1)N1CCC(C2CCN(c3ncccn3)CC2)C1 (stereo not drawn)	0.2616%

// assay Wolbachia pipientis, entry Brc1ccc(C2(NCc3noc(C4CC4)n3)CCC2)cc1 , Percent Effect value = 4.263%

Tested on Wolbachia pipientis, the item CC(C)C(CNC(=O)Nc1cn[nH]c1)N1CCOCC1 (stereo not drawn) showed Percent Effect equal to 97.51%

// Percent Effect (Wolbachia pipientis) for CC(C)C[C@H](NC(=O)Cc1csc(-c2cccc(Cl)c2)n1)C(=O)O = 111.7%

Given the compound CO[C@H]1CO[C@@]2(CCCN(C(=O)C3CC=CC3)C2)C1 and test system Wolbachia pipientis, the measured Percent Effect is 107.2%

The value of Percent Effect recorded for Cn1cccc1C(=O)NCc1cn2c(n1)CN(c1ncccn1)CC2 when tested on Wolbachia pipientis reads -46.58%

Case COc1ccccc1OCC(=O)N1CCC[C@]2(C[C@@H](OC)CO2)C1 , Wolbachia pipientis, Percent Effect recorded as -30.12%

Field Percent Effect (system: Wolbachia pipientis) for entry COc1ccccc1Oc1ncccc1CNC(=O)[C@H](N)CC(C)(C)C = -16.84%

Response field Percent Effect (Wolbachia pipientis) for item CC(C)(C)CCN1CCN(c2snc(Cl)c2C#N)CC1 : -4.564%

Entry CO[C@@H]1CO[C@@]2(CCN(C(=O)COc3ccccc3C)C2)C1 : Percent Effect on Wolbachia pipientis = -3.612%

====

- Tested on: Wolbachia pipientis
- EXPERIMENTAL_PROTOCOL: Anti-Wolbachia Cell-Based Screen
- Type: functional
- Parameters: scale not given: in the data most compounds retested in dose-response had high values
- PROTOCOL_CONDITIONS: 5 µM
Hit rate of the full screen: of about 48,000 compounds, about 13,000 (27%) showed an effect of 50% or more. The list shows a part of the results.
PROPERTY_MEASURED: Percent Effect (%)
Give the quantity in %, number only.

Some molecules with known Percent Effect results, for comparison:
MOLECULE	PROPERTY_MEASURED	QUANTITATIVE_RESULT
CC(C1CC1)N(C)C(=O)c1cnc(-c2ccc3c(c2)OCO3)s1 (centres undefined)	Percent Effect	-9.871
CCc1nc(CC(=O)NCC2(C(N)=O)CCOCC2)cs1	Percent Effect	13.26
CCc1ncc(C(=O)NCC2CCN(Cc3ccncc3)CC2)cn1	Percent Effect	-2.292
O=C(NCCN1CCOC1=O)c1ccc2sccc2c1	Percent Effect	-4.154
COCc1nc(CN2CCC3(CCCO3)CCC2=O)no1 (centres undefined)	Percent Effect	-11.19

// Cc1nn(C)c(C)c1S(=O)(=O)N(CC(N)=O)CC(C)C : Percent Effect value = 0.7063

Looking up CCNC(=O)NC(C)(C)C(=O)NCCc1csc2ccccc12 , I found its Percent Effect recorded as 9.687

Reported Percent Effect for O=C(NCCn1ccnc1C1CCOC1)c1cccnc1 (centres undefined) was -7.177

Looking up COCc1cnc2n1CCN(C(=O)c1ccc3ccccc3n1)C2C.O=C(O)C(F)(F)F (centres undefined) , I found its Percent Effect recorded as -39.11

Where do these numbers come from? They come from ChEMBL document CHEMBL3988442.
